# credit: PubChem BioAssay (NCI)

- Test system: M14 melanoma
- methodSummary: NCI tumour cell line growth inhibition, 48 h
Where a SMILES comes first, the peptide text is derived from it. [ ]: non-standard residue; d: D form. The star is where a group is joined. NMeV = CN[C@H](C(=O)O)C(C)C; X29 = COc1ccc(CN*)c(OC)c1; Octanoyl = CCCCCCCC(=O)*; dNMeA = CN[C@H](C)C(=O)O
Use rule met when the recorded TGI is no lower than 20 µM; use rule not met when it is lower.

CC1=NC(=Cc2cccc(Cl)c2)C(=O)N1n1c(-c2ccccc2)nc2ccccc2c1=O: rule met
COC1C=COC2(C)Oc3c(C)c(O)c4c(c3C2=O)/C(=N/C2CCC(O)OC2C)C=C(NC(=O)/C(C)=C\C(=O)C2CC2C(O)C(C)C(O)C(C)C(OC(C)=O)C1C)C4=O (stereo not given): rule not met
CC1=NNC(=O)C1C1CC(c2c[nH]c3ccccc23)=NNC1=O (stereo not given): rule met
COC(=O)[C@@H]1[C@H](OC(C)=O)CCC2[C@@]3(C[C@@H](c4ccoc4)O[C@@H]3OC)[C@H](C)CC[C@]21C(=O)OC (stereo not given in full): rule met
CCCCCCCCCCCCCCCCCC[n+]1ccc2c(C)c3c(c(C)c2c1)c1cc(O)ccc1n3CC: rule not met
O=C1CC(c2c[nH]c3ccccc23)C(=O)N1 (stereo not given): rule met
O=C1C(Cl)=C(Nc2ccc(S(=O)(=O)O)cc2)C(=O)c2ccccc21: rule met
CN(C)CCCn1c(=O)c2ccccc2c2ccccc21: rule met
O=S1(=O)OCCOS(=O)(=O)C1(F)Br: rule met
O=C(/C=C\c1cccc([N+](=O)[O-])c1)/C=C/c1cccc([N+](=O)[O-])c1: rule not met
CCC1(c2ccccc2)C(=O)N=C(c2ccccc2)N1CCc1ccccc1 (stereo not given): rule met
COc1ccc(CC2(O)C3CC4CCC2C4C3)cc1 (stereo not given): rule met
NC(N)=NCCCC(NC(=O)c1cccc2c(=O)c3ccccc3[nH]c12)C(=O)O (stereo not given): rule met
O=C(Nc1ccc(OCc2nnc(-c3ccc(Cl)cc3)o2)c(F)c1)Nc1ccc(Cl)c(C(F)(F)F)c1: rule not met
O=C1c2cccnc2C(=O)c2c1c(C(=O)NCCCN1CCCCC1)c1ccccn21: rule not met
Cc1ccc(-c2nnc(-c3nn(-c4ccccc4)c4nc5ccccc5nc34)o2)cc1: rule met
N#Cc1sc2c(c1OC(=O)c1ccccc1)c(=O)n(-c1ccccc1)c(=S)n2-c1ccccc1: rule met
Fc1ccc(C2SCc3nc4ccccc4n32)c(F)c1 (stereo not given): rule met
O=C1OCC2=C1C(c1ccc(Cl)c(Cl)c1)c1cc3c(cc1N2CCO)OCCO3 (stereo not given): rule not met
COc1ccc(C=O)c([N+](=O)[O-])c1: rule met
COc1cc2c(c(OC)c1OC)-c1ccc(SC)c(=O)cc1C(NC(=O)c1ccccc1)CC2 (stereo not given): rule met
O=c1ssc(=Nc2ccccc2)n1-c1ccccc1: rule met
CCOC(=O)/C(C=Nc1c(C)n(C)n(-c2ccccc2)c1=O)=C(/C)O: rule met
COc1ccc(-c2cc(-c3ccc(C)cc3)nc3nc(=S)[nH]c(N)c23)cc1: rule met
CCCCCCCC(=O)N[C@H](C(=O)N[C@H](C(=O)N(C)[C@H](C(=O)N1CCC[C@H]1C(=O)N(C)[C@H](C)C(=O)NCc1ccc(OC)cc1OC)C(C)C)C(C)C)C(C)C (Octanoyl-VV[NMeV]P[dNMeA]-X29): rule met
CC(=O)C1C(=O)C(=O)N(c2cccc([N+](=O)[O-])c2)C1=O (stereo not given): rule met
O=C(OCc1ccc2ccccc2n1)c1cn(C2CC2)c2cc(N3CCN(Cc4ccc5ccccc5n4)CC3)c(F)cc2c1=O: rule met
CNCCCNCCCCNCCCN1C(=O)c2ccc3c4c(ccc(c24)C1=O)C(=O)N(CCCNCc1ccccc1OC)C3=O: rule not met
CN=c1ccc2nc3ccc(N)cc3sc-2c1: rule not met
CC1=NN(C(=O)c2ccncc2)C(=O)C1: rule met
O=c1[nH]cc(-c2c[nH]c3ccccc23)nc1-c1c[nH]c2ccccc12: rule met
CCC(C=O)P1(=O)OC(C)(C)CN1C(C)(C)C (stereo not given): rule met
COc1cc(N2C(=O)[C@H](O)C2c2ccc(SC)cc2)cc(OC)c1OC (stereo not given in full): rule not met
CN(C)c1ccc(C(Cc2ccccc2)C2NC(=S)NC2=O)cc1 (stereo not given): rule met
Cc1ccc2c(C3Cc4ccccc4N3C(=O)/C=C\C(=O)O)c(C)[nH]c2c1 (stereo not given): rule met
O=C1NC(=O)C2C(=O)NC(=O)C1C2c1c(Cl)cccc1Cl (stereo not given): rule met
CCC(=O)C12OC3OC(C)(C)OC3C1OC(C)(C)O2 (stereo not given): rule met
OCc1ccc(N2CCCC2c2ccccc2)cc1Cl (stereo not given): rule met

---

- Tested on: PC-3 prostate
- methodSummary: NCI tumour cell line growth inhibition, 48 h
Answer class 0 if TGI is under 50 µM, and class 1 if it is 50 µM or more.

O=C1c2cccnc2C(=O)c2c1c(C(=O)NCCCN1CCCCC1)c1ccccn21: class 0
COC1C=COC2(C)Oc3c(C)c(O)c4c(c3C2=O)/C(=N/C2CCC(O)OC2C)C=C(NC(=O)/C(C)=C\C(=O)C2CC2C(O)C(C)C(O)C(C)C(OC(C)=O)C1C)C4=O (stereo not given): class 0
CCCCn1c(N)c(-c2nc3ccccc3o2)sc1=S: class 1
C=CCC1(OCc2ccccc2)C(=O)C(=O)OC1C1COC(C)(C)O1 (stereo not given): class 1
CN=c1ccc2nc3ccc(N)cc3sc-2c1: class 0
CCc1nn(CN2CCOCC2)c(=S)n1/N=C/c1ccc(-c2ccc(Cl)cc2)o1: class 1
COc1ccc(-c2nc(Nc3cc(C)[nH]n3)c3ccccc3n2)cc1: class 1
O=C1OCC2=C1C(c1ccc(Cl)c(Cl)c1)c1cc3c(cc1N2CCO)OCCO3 (stereo not given): class 0

---

- Test system: SR leukemia
- methodSummary: NCI tumour cell line growth inhibition, 48 h
Recorded TGI, one value per entry.
endpointName: TGI (µM)

O=C(CCCN1CCC2(CC1)CC(c1ccccc1)OC2=O)c1ccc(F)cc1 (stereo unspecified): 40.1
C[C@@H]1CN(Cc2ccc(F)cc2)[C@@H](C)CN1C(=O)c1cc2c(C(=O)C(=O)N(C)C)cn(C)c2cc1Cl: 39.2
CNCCCNCCCCNCCCN1C(=O)c2ccc3c4c(ccc(c24)C1=O)C(=O)N(CCCNCc1ccccc1OC)C3=O: 43.9
N#Cc1c(N2CCOCC2)nc(=S)[nH]c1-c1ccco1: 51.7

---

- System: SNB-75 CNS
- methodSummary: NCI tumour cell line growth inhibition, 48 h; in the data active = GI50 below about 0.43 µM; inactive = the rest
Labels: true (active), false (inactive)

O=C1c2c(c3c4ccccc4[nH]c3c3ccc4ccccc4c23)C(=O)N1CCN1CCNCC1: false
O=C(/C=C/c1cc2ccccc2[nH]c1=O)/C=C/c1cc2ccccc2[nH]c1=O: false
O=C1NC(=O)C(N2C(=O)c3ccccc3C2=O)CC1O (centres undefined): false
COc1cc2c(cc1OCCCn1c(-c3ccccn3)nc3ccccc31)N=C[C@@H]1CCCN1C2=O: false
CN=c1ccc2nc3ccc(N)cc3sc-2c1: false
O=C1C(=C([O-])c2ccccc2)C(=O)c2ccccc21.O=C1C(=C([O-])c2ccccc2)C(=O)c2ccccc21.[Fe+2]: false
CCCCCCCCCCCCCCCCCC[n+]1ccc2c(C)c3c(c(C)c2c1)c1cc(O)ccc1n3CC: false
c1cnn2ncc(-c3ccnc(NCCCN4CCOCC4)n3)c2c1: false
O=C1CCC(N2Cc3cc(CNC(=O)C(F)(F)c4ccc(Cl)cc4)ccc3C2=O)C(=O)N1 (centres undefined): true
COc1cc2nc(N3CCCC3)nc(NCCc3ccccc3)c2cc1OC: false
O=C(/C=C\c1cccc([N+](=O)[O-])c1)/C=C/c1cccc([N+](=O)[O-])c1: false
COc1ccc(-c2cc(-c3ccc(C)cc3)nc3nc(=S)[nH]c(N)c23)cc1: false
CC1=C2[C@@H](CC1)[C@]1(C)O[C@@](c3ccccc3)(C[C@H]1OC(=O)CO)[C@H]2OC(=O)/C=C/c1ccccc1: false
OCc1ccc(N2CCCC2c2ccccc2)cc1Cl (centres undefined): false
CN1CCN(C(=O)c2cc(-c3ccc4ncnc(N5CCc6cc(F)c(Cl)cc65)c4c3)cnc2N)CC1: true
CNCCCNCCCCNCCCN1C(=O)c2ccc3c4c(ccc(c24)C1=O)C(=O)N(CCCNCc1ccccc1OC)C3=O: false
CCOC(=O)C1=C(C)N(c2ccc(Cl)cc2)[C@]2(C#N)C(O)=C(Cl)C(Cl)=C(O)[C@]12C#N: false
O=C(Nc1ccc(OCc2nnc(-c3ccc(Cl)cc3)o2)c(F)c1)Nc1ccc(Cl)c(C(F)(F)F)c1: false
N#Cc1c(N2CCOCC2)nc(=S)[nH]c1-c1ccco1: false

---

- System: HCC-2998 colon
- methodSummary: NCI tumour cell line growth inhibition, 48 h; in the data active = GI50 below about 0.43 µM; inactive = the rest
Classes used: 1 = active, 0 = inactive

COc1ccc2cc1Oc1ccc(cc1)C[C@H]1c3c(cc4c(c3Oc3cc5c(cc3OC)CCN(C)[C@@H]5C2)OCO4)CCN1C: 0
OCC1OC(n2cnc3c(N/N=C\c4ccccn4)ncnc32)C(O)C1O (configuration not stated): 1
O=C(NN1C(=O)CSC12CCCCC2)c1[nH]c2ccc(Br)cc2c1-c1ccccc1: 0
CO[C@H]1CC(O[C@@H]2/C(C)=C/C[C@@H]3C[C@@H](C[C@]4(C=C[C@H](C)[C@@H](C5CCCCC5)O4)O3)OC(=O)[C@@H]3C=C(C)[C@@H](O)[C@H]4OC/C(=C\C=C\[C@@H]2C)[C@]43O)O[C@@H](C)C1O[C@H]1C[C@H](OC)[C@@H](O)[C@H](C)O1 (some centres not stated): 0
CC(=O)OC12C=C(C)C(C(C)C1)C1C(=O)N(CCN3CCOCC3)C(=O)C12 (configuration not stated): 0
COc1cc2c3c(n(C)c(=O)c2cc1OC)-c1cc2c(cc1/C3=C\CCCCN1C(=O)c3ccccc3C1=O)OCO2: 0
COc1cc(N2C(=O)[C@H](O)C2c2ccc(SC)cc2)cc(OC)c1OC (some centres not stated): 1
O=C(/C=C/c1cc2ccccc2[nH]c1=O)/C=C/c1cc2ccccc2[nH]c1=O: 0
O=C(OCc1ccc2ccccc2n1)c1cn(C2CC2)c2cc(N3CCN(Cc4ccc5ccccc5n4)CC3)c(F)cc2c1=O: 0
CN[C@@H](C)C(=O)N[C@H](C(=O)N1CCC[C@H]1C(=O)Nc1sc(-c2ncco2)nc1-c1ccccc1)C1CCCCC1: 0
CN=c1ccc2nc3ccc(N)cc3sc-2c1: 0
COc1ccc(-c2nc(Nc3cc(C)[nH]n3)c3ccccc3n2)cc1: 0
CC(C)NCCCn1c(Sc2cc3c(cc2I)OCO3)nc2c(N)ncnc21: 1
O=C(/C=C\c1cccc([N+](=O)[O-])c1)/C=C/c1cccc([N+](=O)[O-])c1: 0
O=C1/C(=C/c2ccccc2[N+](=O)[O-])Cc2ccccc21: 0
CNCCCNCCCCNCCCN1C(=O)c2ccc3c4c(ccc(c24)C1=O)C(=O)N(CCCNCc1ccccc1OC)C3=O: 0
CC1=C2[C@@H](CC1)[C@]1(C)O[C@@](c3ccccc3)(C[C@H]1OC(=O)CO)[C@H]2OC(=O)/C=C/c1ccccc1: 0
